target: recombinant human IL-1 beta (human, UniProt P01584 117-269); experiment: cell-based or functional assay
TEST_READOUT: IC50 of IL-1 beta-induced IL-6 release from human dermal fibroblasts (pM)
Express the result in pM but write the number alone.

Solved entries (count: 3):
INSERT INTO results (binder, unit_string, test_value) VALUES
  ('DLX2586 (scFv) scFv: EIVMTQSPSTLSASVGDRVIITCQASQSIDNWLSWYQQKPGKAPKLLIYRASTLASGVPSRFSGSGSGAEFTLTISSLQPDDFATYYCQNTGGGVSIAFGQGTKLTVLGGGGGSGGGGSGGGGSGGGGSEVQLVESGGGLVQPGGSLRLSCTVSGFSLSSYAMSWVRQAPGKGLEWIGIIYDSASTYYASWAKGRFTISKDTSKNTVYLQMNSLRAEDTAVYFCARERQIFSGDMDGWGQGTLVTVSS', 'pM', 2),
  ('DLX2528 (scFv) scFv: EIVMTQSPSTLSASVGDRVTITCQASQSIGNWLAWYQQKPGKAPKLLIYQASNLASGVPSRFSGSGSGTDFTLTISSLQPDDFATYYCQNAGGATTIAFGQGTKLTVLGGGGGSGGGGSGGGGSGGGGSEVQLVESGGGLVQPGGSLRLSCTASGFSLSSAAMAWVRQAPGKGLEWVGIIYDSASTYYASWAKGRFTISRDTSKNTVYLQMNSLRAEDTAVYYCARERAIFSGDFVLWGQGTLVTVSS', 'pM', 8),
  ('DLX2547 (scFv) scFv: ADIVMTQSPSTLSASVGDRVTITCQASQSISSYLSWYQQKPGKAPKLLIYRASTLASGVPSRFSGSGSGAEFTLTISSLQPDDFATYYCQNTGGGINIAFGQGTKLEIKRGGGGSGGGGSGGGGSGGGGSEVQLVESGGGLVQPGGSLRLSCTASGFSLSSAAMAWVRQAPGKGLEWVGIIYDSASTYYASWAKGRFTISRDTSKNTVYLQMNSLRAEDTAVYYCARERAIFSGDFVLWGQGTLVTVSS', 'pM', 30);

Shift focus to the following entry.
Please give measured IC50 of IL-1 beta-induced IL-6 release from human dermal fibroblasts of the following entry: DLX2545 (scFv) scFv: EIVMTQSPSTLSASVGDRVIITCQASQSIDNWLSWYQQKPGKAPKLLIYRASTLASGVPSRFSGSGSGAEFTLTISSLQPDDFATYYCQNTGGGVSIAFGQGTKLTVLGGGGGSGGGGSGGGGSGGGGSEVQLVESGGGLVQPGGSLRLSCTASGFSLSSAAMAWVRQAPGKGLEWIGIIYDSASTYYASWAKGRFTISRDTSKNTLYLQMNSLRAEDTAVYFCARERNIFSGDMVLWGQGTTVTVSS
7

Sourced from patent US20140134183A1
